Numbers sourced from patent US10106556B2.

target: His-hMAGL (recombinant polyhistidine tagged human MAGL protein) (Homo sapiens); construct: made in house; host or cells: E. coli BL21(DE3); experiment: Measurement of MAGL inhibitory activity (arachidonic acid production from 2-arachidonylglycerol, RapidFire-mass spectrometry); assay type: biochemical; details: MAGL inhibitory rate at 10 μM test compound; 60 min preincubation with His-hMAGL, 2-arachidonylglycerol substrate, 10 min reaction at room temperature
readout_label: inhibition at 10 µM (%)

                                chem_smiles                              assay_target        readout_label  measurement
0  O=C1COc2cc(F)c(C(=O)N3CC(COc4ccc(F)c(F)c4)C3)cc2N1  His-hMAGL (recombinant polyhistidine tagged human MAGL protein) (Homo sapiens)  inhibition at 10 µM          103
1  N#Cc1ccccc1COC1CN(C(=O)c2cc3c(cc2F)OCC(=O)N3)C1  His-hMAGL (recombinant polyhistidine tagged human MAGL protein) (Homo sapiens)  inhibition at 10 µM          101
2  O=C1COc2cc(F)c(C(=O)N3CCC(O)(COc4ccc(F)cc4Cl)CC3)cc2N1  His-hMAGL (recombinant polyhistidine tagged human MAGL protein) (Homo sapiens)  inhibition at 10 µM          102
3  O=C1COc2cc(F)c(C(=O)N3CC(COc4ccc(OC(F)F)cc4)C3)cc2N1  His-hMAGL (recombinant polyhistidine tagged human MAGL protein) (Homo sapiens)  inhibition at 10 µM          101

---

target: His-hMAGL (recombinant polyhistidine tagged human MAGL protein) (Homo sapiens); construct: made in house; host or cells: E. coli BL21(DE3); assay: Measurement of MAGL inhibitory activity (arachidonic acid production from 2-arachidonylglycerol, RapidFire-mass spectrometry); assay type: biochemical; settings: MAGL inhibitory rate at 10 μM test compound; 60 min preincubation with His-hMAGL, 2-arachidonylglycerol substrate, 10 min reaction at room temperature
readout_label: inhibition at 10 µM (%)

                                   compound  unit_name  measurement
0  CC1(COc2ccc(F)cc2Cl)CN(C(=O)c2cc3c(cc2F)OCC(=O)N3)C1 [Example 283]          %          101
1  O=C1COc2cc(F)c(C(=O)N3CC(COc4ccc(OC(F)(F)F)cc4)C3)cc2N1 [Example 143]          %          100
2  O=C1COc2ccc(C(=O)N3CCC(COc4ccccc4)CC3)cc2N1 [Example 12]          %           99
3  O=C1COc2cc(F)c(C(=O)N3CC(COc4ccc(-c5ccccn5)cc4F)C3)cc2N1 [Example 227]          %           97

---

The entries below come with measured inhibition at 10 µM values attached.
target: His-hMAGL (recombinant polyhistidine tagged human MAGL protein) (Homo sapiens, UniProt Q99685); construct: made in house; host or cells: E. coli BL21(DE3); assay: Measurement of MAGL inhibitory activity (arachidonic acid production from 2-arachidonylglycerol, RapidFire-mass spectrometry); assay type: biochemical; conditions: MAGL inhibitory rate at 10 μM test compound; 60 min preincubation with His-hMAGL, 2-arachidonylglycerol substrate, 10 min reaction at room temperature
Sequence (Q99685 whole entry): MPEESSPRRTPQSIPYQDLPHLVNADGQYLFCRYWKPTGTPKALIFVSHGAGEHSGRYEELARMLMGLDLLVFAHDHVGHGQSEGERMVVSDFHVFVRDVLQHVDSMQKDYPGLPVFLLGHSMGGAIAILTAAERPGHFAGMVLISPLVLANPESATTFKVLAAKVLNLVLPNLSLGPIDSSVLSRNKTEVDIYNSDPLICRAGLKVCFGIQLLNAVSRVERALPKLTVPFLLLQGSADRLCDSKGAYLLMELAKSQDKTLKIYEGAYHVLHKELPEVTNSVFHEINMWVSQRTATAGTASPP
readout_label: inhibition at 10 µM (%)

                                   compound        readout_label  measurement
0  CC(Oc1ccc(F)cc1F)C1CN(C(=O)c2cc3c(cc2F)OCC(=O)N3)C1 (centres unmarked) [Example 298]  inhibition at 10 µM           99
1  O=C1COc2cc(F)c(C(=O)N3CC(COc4cccc(-c5ccccc5)c4)C3)cc2N1 [Example 110]  inhibition at 10 µM           97
2  CCc1ccc(-c2ccnc(C)c2OCC2CN(C(=O)c3cc4c(cc3F)OCC(=O)N4)C2)nc1 [Example 176]  inhibition at 10 µM           95
3  O=C1COc2cc(F)c(C(=O)N3CC(OCc4ccc(Cl)cc4Cl)C3)cc2N1 [Example 324]  inhibition at 10 µM          102
4  CC(=O)n1ncc2c(OCC3CCN(C(=O)c4ccc5c(c4)NC(=O)CO5)CC3)cccc21 [Example 63]  inhibition at 10 µM           93
5  COc1ccc(COC2CN(C(=O)c3cc4c(cc3F)OCC(=O)N4)C2)cc1F [Example 348]  inhibition at 10 µM          100
6  O=C1COc2cc(F)c(C(=O)N3CCC(COC4CCOCC4)CC3)cc2N1 [Example 83]  inhibition at 10 µM           86
7  O=C1COc2cc(F)c(C(=O)N3CC(COc4ccccc4C4CCCC4)C3)cc2N1 [Example 166]  inhibition at 10 µM           98
